# PROTOCOL NOTES: LNP size, PDI and zeta potential by Dynamic Light Scattering (Method A)
# Format: physicochemical
# CONDITION: LNP formulated by Method A, 1xPBS pH 7.4
# maps each entry to its Zeta potential (mV)
MEASUREMENT KIND: Zeta potential (mV)

• CC/C=C\C/C=C\C/C=C\C/C=C\C/C=C\CCCCN(CCCCO)CCCCCCO[Si](C)(C)OC(CCCCCCC)OCCCCCCCC (stereo not drawn) [Example 205] = −13.13
• CCCCCCCC[Si](C)(C)O[Si](C)(C)OC(CCCCCCC)OCCCCCCN(CCCCO)CCCCCCOC(CCCCCCC)O[Si](C)(C)O[Si](C)(C)CCCCCCCC (stereo not drawn) [Example 108] = −14.24
• CCCCCCCCOC(CCCCCN(CCCCCC(OCCCCCCCC)O[Si](C)(C)O[Si](C)(C)CCCCCCCC)CCC1CCCN1C)O[Si](C)(C)O[Si](C)(C)CCCCCCCC (stereo not drawn) [Example 118] = −15.92
• CC/C=C\C/C=C\C/C=C\C/C=C\C/C=C\CCCCN(CCCCO)CCCCCCOC(CCCCCCC)O[Si](C)(C)CCCCCCCC (stereo not drawn) [Example 195] = −5.8
• CCCCCCCCOC(CCCCCN(CCCCO)CCCCCCOC(=O)C(CCCCCC)CCCCCCCC)O[Si](C)(C)CCCCCCCC (stereo not drawn) [Example 128] = −14.77
• CCCCCCCCOC(CCCCCCC)O[Si](C)(C)OCCCCCCN(CCCCO)CCCCCCOC(=O)C(CCCCCCCC)SCCCCC (stereo not drawn) [Example 188] = −18.1
• CC/C=C\C/C=C\C/C=C\C/C=C\C/C=C\CCCCN(CCCCO)CCCCCCOC(CCCCCCC)O[Si](C)(C)OCC(CCCCCC)CCCCCCCC (stereo not drawn) [Example 203] = −14.95
• CCCCCCCCCC(OCCCCCCN(CCCCO)CCCCCCOC(CCCCCCCCC)O[Si](C)(C)CCCCCC)O[Si](C)(C)CCCCCC (stereo not drawn) [Example 104] = −13.26
• CCCCCCCCOC(CCCCCN(CCCCO)CCC[C@@H](C)C1CCC2C3CCC4C[C@H](OC)CC[C@]4(C)C3CC[C@@]21C)O[Si](C)(C)O[Si](C)(C)OCCCCCCCC (stereo partly drawn) [Example 220] = −14.55
